Target or test system: AAK1 (full length human) in transfected HEK293F cells (Homo sapiens, UniProt Q2M2I8)
Construct: expressed in transfected cells; host or cells: HEK293F
Sequence (Q2M2I8 1-863 isoform Q2M2I8-2): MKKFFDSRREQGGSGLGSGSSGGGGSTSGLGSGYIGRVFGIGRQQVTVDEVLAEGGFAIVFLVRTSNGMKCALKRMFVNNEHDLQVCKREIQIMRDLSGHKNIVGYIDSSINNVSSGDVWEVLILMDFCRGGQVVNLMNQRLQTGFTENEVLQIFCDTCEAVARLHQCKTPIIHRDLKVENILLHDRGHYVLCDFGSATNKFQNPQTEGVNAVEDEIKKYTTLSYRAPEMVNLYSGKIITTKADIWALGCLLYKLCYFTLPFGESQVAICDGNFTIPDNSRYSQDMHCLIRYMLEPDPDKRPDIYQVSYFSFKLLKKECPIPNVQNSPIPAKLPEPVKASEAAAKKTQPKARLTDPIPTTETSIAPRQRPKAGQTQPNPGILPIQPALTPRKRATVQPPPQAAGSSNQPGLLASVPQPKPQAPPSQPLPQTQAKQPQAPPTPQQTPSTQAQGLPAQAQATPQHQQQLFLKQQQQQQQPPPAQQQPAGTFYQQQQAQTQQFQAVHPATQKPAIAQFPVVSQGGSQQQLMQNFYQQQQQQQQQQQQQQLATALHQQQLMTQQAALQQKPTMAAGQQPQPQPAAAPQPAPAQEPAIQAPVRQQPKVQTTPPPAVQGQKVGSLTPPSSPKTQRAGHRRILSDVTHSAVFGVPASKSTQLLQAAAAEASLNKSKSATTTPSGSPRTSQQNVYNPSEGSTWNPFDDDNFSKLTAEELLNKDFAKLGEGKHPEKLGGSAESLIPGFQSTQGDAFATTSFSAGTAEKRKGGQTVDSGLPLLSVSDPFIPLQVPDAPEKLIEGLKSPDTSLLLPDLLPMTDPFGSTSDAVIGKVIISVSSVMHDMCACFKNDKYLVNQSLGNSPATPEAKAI
Procedure text: HEK281 cell-based assay (phospho-mu2 Western blot)
Applied conditions: HEK281 cell-based assay; pyrazolo[1,5-a]pyrimidine-based inhibitors; read-out: CBA IC50
pIC50: −log10 of the molar value.
Metric: pIC50

| Compound | Metric | Result |
| --- | --- | --- |
| CCCCNc1ccn2ncc(-c3ccc(C(=O)NCCN)cc3)c2n1 | pIC50 | ≥ 7.00 |
| COc1ncccc1-c1cnn2ccc(N3CCN(C(=O)N(C)C(C)(C)C)CC3)nc12 | pIC50 | ≥ 7.00 |
| CCOc1ncccc1-c1cnn2ccc(N3CCN(C(=O)OC(C)C)CC3)nc12 | pIC50 | ≥ 7.00 |
| COc1ccccc1-c1cnn2ccc(NC[C@@H]3CCCN3C(=O)OC(C)(C)C)nc12 | pIC50 | ≥ 8.00 |
| COc1ccc(-c2cnn3ccc(N4CCN(C(=O)OC(C)C)CC4)nc23)c(OC)n1 | pIC50 | ≥ 8.00 |

###

Listed compounds paired with reported IC50
Target or test system: AAK1 (full length human) in transfected HEK293F cells (Homo sapiens, UniProt Q2M2I8)
Construct: expressed in transfected cells; host or cells: HEK293F
Procedure text: HEK281 cell-based assay (phospho-mu2 Western blot)
Applied conditions: HEK281 cell-based assay; pyrazolo[1,5-a]pyrimidine-based inhibitors; read-out: CBA IC50
Metric: IC50

| Compound | Result |
| --- | --- |
| CC(C)(C)OC(=O)N1CCC[C@H]1CNc1ccn2ncc(-c3ccc(C(N)=O)cc3)c2n1 | ≤ 1000 nM |
| COc1cnccc1-c1cnn2ccc(NCCOC3CCCC3)nc12 | ≤ 100 nM |
| CC(C)(C)OC(=O)N1CCC[C@H]1CNc1ccn2ncc(-c3ccncc3)c2n1 | ≤ 10 nM |
| COc1ccncc1-c1cnn2ccc(N3CCN(C(=O)OC(C)C)CC3)nc12 | ≤ 100 nM |
| CC(C)(C)OC(=O)N1CCC[C@H]1CNc1ccn2ncc(C(F)(F)F)c2n1 | ≤ 100 nM |
| COc1cnccc1-c1cnn2ccc(N3CCN(C(=O)OC(C)C)CC3)nc12 | ≤ 100 nM |
| CC(C)OC(=O)N1CCN(c2ccn3ncc(-c4cccn(C)c4=O)c3n2)CC1 | ≤ 100 nM |
| CC(C)(C)CCN1C(=O)CC[C@H]1CNc1ccn2ncc(Br)c2n1 | ≤ 100 nM |
| COC(=O)N1CCC[C@H]1CNc1ccn2ncc(-c3ccccc3OC)c2n1 | ≤ 100 nM |
| CC(C)OC(=O)N1CCN(c2ccn3ncc(-c4cccnc4OC(C)C)c3n2)CC1 | ≤ 100 nM |

###

Target or test system: AAK1 (full length human) in transfected HEK293F cells (Homo sapiens)
Construct: expressed in transfected cells; host or cells: HEK293F
Procedure text: HEK281 cell-based assay (phospho-mu2 Western blot)
Applied conditions: HEK281 cell-based assay; pyrazolo[1,5-a]pyrimidine-based inhibitors; read-out: CBA IC50
pIC50: −log10 of the molar value.

| Compound | pIC50 |
| --- | --- |
| NCc1ccc(-c2cnn3ccc(NCCc4ccccc4OC(F)(F)F)nc23)cc1 | ≥ 8.00 |
| CCc1ccccc1-c1cnn2ccc(NC[C@@H]3CCCN3C(=O)OC(C)(C)C)nc12 | ≥ 7.00 |
| FC(F)(F)CN1CCCC1CNc1ccn2ncc(Br)c2n1 (centres unmarked) | ≥ 7.00 |
| CNC(=O)c1ccc(-c2cnn3ccc(NCCN(C)C(=O)OC(C)(C)C)nc23)cc1 | ≥ 8.00 |
| CCCC(=O)N(C)[C@H]1CCN(c2ccn3ncc(-c4ccccc4OC)c3n2)C1 | ≥ 6.00 |
| COc1ccccc1-c1cnn2ccc(NC[C@@H]3CCCN3C(=O)OC(C)C)nc12 | ≥ 8.00 |
| CC(C)OC(=O)N1CCN(c2ccn3ncc(-c4cccnc4F)c3n2)CC1 | ≥ 7.00 |
| CC(C)(C)NC(=O)N1CCC[C@H]1CNc1ccn2ncc(Br)c2n1 | ≥ 8.00 |
| COc1ncccc1-c1cnn2ccc(N3CCN(C(=O)NC(C)C)CC3)nc12 | ≥ 8.00 |
| COc1ncccc1-c1cnn2ccc(N3CCN(C(=O)OC(C)C)CC3=O)nc12 | ≥ 8.00 |
| CC(C)OC(=O)N1CCN(c2ccn3ncc(-c4cccnc4O)c3n2)CC1 | ≥ 7.00 |
| COc1ncccc1-c1cnn2ccc(N3CCN(C(=O)OC4CCCC4)CC3)nc12 | ≥ 8.00 |
| CC(C)(C)OC(=O)N1CCC[C@H]1CNc1ccn2ncc(-c3ccccc3O)c2n1 | ≥ 7.00 |
| COc1ccccc1-c1cnn2ccc(NC[C@@H]3CCC(=O)N3CCC(C)(C)C)nc12 | ≥ 8.00 |
